Reported pIC50 by item:
- System name: Tumour suppressor protein p53/Mdm4 (Homo sapiens, UniProt O15151+P04637)
- Sequence (P04637 whole entry): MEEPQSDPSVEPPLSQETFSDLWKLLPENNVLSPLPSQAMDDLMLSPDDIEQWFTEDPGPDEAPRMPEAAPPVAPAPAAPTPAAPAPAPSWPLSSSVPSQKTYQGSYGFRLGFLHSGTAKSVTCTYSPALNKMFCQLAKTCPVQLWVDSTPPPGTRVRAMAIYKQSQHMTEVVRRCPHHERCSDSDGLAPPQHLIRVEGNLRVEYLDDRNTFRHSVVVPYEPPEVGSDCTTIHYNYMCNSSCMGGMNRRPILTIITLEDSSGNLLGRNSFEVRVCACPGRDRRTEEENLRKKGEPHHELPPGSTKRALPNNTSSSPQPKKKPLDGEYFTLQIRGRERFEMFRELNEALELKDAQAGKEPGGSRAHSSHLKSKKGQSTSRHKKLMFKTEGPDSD
- Sequence (O15151 whole entry): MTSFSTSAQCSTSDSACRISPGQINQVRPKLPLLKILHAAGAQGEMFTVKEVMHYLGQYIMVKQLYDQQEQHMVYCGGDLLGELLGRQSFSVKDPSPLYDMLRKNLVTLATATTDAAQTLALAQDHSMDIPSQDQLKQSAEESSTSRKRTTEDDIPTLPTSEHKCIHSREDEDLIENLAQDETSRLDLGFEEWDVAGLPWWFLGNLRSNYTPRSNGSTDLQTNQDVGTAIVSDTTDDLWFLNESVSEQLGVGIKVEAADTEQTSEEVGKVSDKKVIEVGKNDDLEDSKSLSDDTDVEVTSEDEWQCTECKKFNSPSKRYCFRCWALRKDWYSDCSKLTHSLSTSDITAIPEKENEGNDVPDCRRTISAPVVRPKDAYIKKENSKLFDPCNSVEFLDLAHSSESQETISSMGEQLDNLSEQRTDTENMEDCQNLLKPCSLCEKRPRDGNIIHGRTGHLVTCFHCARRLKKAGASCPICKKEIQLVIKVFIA
- Test name: Inhibition of human DMX-p53 protein-protein interaction […]
pIC50: −log10 of the molar value.
Readout: pIC50

* O=C(N[C@@H](Cn1cc(-c2ccc(F)cc2F)nn1)C(=O)O)OCC1c2ccccc2-c2ccccc21 | 8.76
* C[C@](O)(c1ccccc1)c1cn(C[C@H](NC(=O)OCC2c3ccccc3-c3ccccc32)C(=O)O)nn1 | 8.24
* OC[C@H]1OC(n2cc(-c3ccc(F)cc3F)nn2)[C@H](O)[C@@H](O)[C@@H]1O (stereo not given in full) | 10.00
* O=C(N[C@@H](Cn1cc(-c2ccccc2)nn1)C(=O)O)OCC1c2ccccc2-c2ccccc21 | 8.61
* CC(=O)N[C@@H]1C(n2cc([C@@](C)(O)c3cccc(F)c3)nn2)O[C@H](COCc2ccccc2)[C@H](OCc2ccccc2)[C@@H]1OCc1ccccc1 (stereo not given in full) | 7.65
